Where do the numbers come from? From the Human Domainome abundance scans (Beltran et al. 2025).

B1: E3 ubiquitin-protein ligase NEDD4-like, residues 539 to 589; numbered along this chain, Q96PU5 (parent)
chain: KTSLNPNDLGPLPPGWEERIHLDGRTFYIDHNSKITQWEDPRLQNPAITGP

Variants of: B1
Assay: abundance fitness (aPCA) (normalised: wild type 0, dead -1); higher = more abundant; growth selection in yeast, the domain comes from the species named
Details: Homo sapiens
Would you mind telling me the reported abundance fitness of each entry?
Write the value as a bare number.

Form field: reported abundance fitness of "S3D"
-0.085

Form field: reported abundance fitness of "G10V"
-0.181

Form field: reported abundance fitness of "Q37L"
-0.703

Form field: reported abundance fitness of "N7P"
-0.05

Form field: reported abundance fitness of "P11C"
-0.178

Form field: reported abundance fitness of "P11F"
-0.426

Form field: reported abundance fitness of "G10Y"
-0.571

Form field: reported abundance fitness of "P41F"
-1.1

Form field: reported abundance fitness of "A47Q"
0.193

Form field: reported abundance fitness of "L4Y"
-0.105

Form field: reported abundance fitness of "Y28N"
-0.851
